- System: HepG2
- protocol-notes: cell viability relative to DMSO; higher = less toxic
- protocol-conditions: 72 h; 100 nM
Answer each item with its documented cell viability.
One number for each entry, in %.

Request: Look up cell viability: COc1cc(SC)ccc1C(=O)N1CCC(Cc2ccccc2)CC1
Response: 99.9

Request: Would you kindly repeat that for COCCOC(=O)C1=C(C)NC(C)=C(C(=O)OC/C=C/c2ccccc2)C1c1cccc([N+](=O)[O-])c1 (stereo not drawn) ?
Response: 114

Request: Would you kindly repeat that for O=C(O)c1cccc(-c2noc(-c3ccccc3F)n2)c1 ?
Response: 105

Request: Would you kindly repeat that for NC/C(=C/F)CCc1ccc(F)cc1 ?
Response: 87.9

Answer for every listed entry: what is its cell viability? The entries follow.
1. Cc1c(C(=O)Nc2ccc(N3C[C@@H](C)O[C@@H](C)C3)nc2)cccc1-c1ccc(OC(F)(F)F)cc1
2. CCCCCCNC(=O)n1cc(F)c(=O)[nH]c1=O [carmofur]
3. OC[C@H]1O[C@H](O)C[C@@H](O)[C@@H]1O
4. O=S(=O)(O)CCSSCCS(=O)(=O)O

Response:
99.7
101
97.3
102

----------
Answer each item with its documented cell viability.
- System: Calu-3
- protocol-notes: cell viability relative to DMSO; higher = less toxic
- protocol-conditions: 72 h; 10000 nM
Answers are plain numbers, in %.

Solved entries (count: 5):
Request: Look up cell viability: Clc1ccc(COC(Cn2ccnc2)c2ccc(Cl)cc2Cl)c(Cl)c1 (stereo not drawn)
Response: 87.1

Request: Would you kindly repeat that for CCn1c(-c2nonc2N)nc2cnc(Oc3cccc(NC(=O)c4ccc(OCCN5CCOCC5)cc4)c3)cc21 ?
Response: 125

Request: Would you kindly repeat that for COc1ccc(-c2coc3cc(O)ccc3c2=O)cc1 ?
Response: 93.7

Request: Would you kindly repeat that for C=CC(=O)N1CCN(C(=O)CNc2cc(I)c(Cl)cc2O)CC1 [K-Ras(G12C)-inhibitor-12] ?
Response: 79.5

Request: Would you kindly repeat that for COc1cc(N)c(Cl)cc1C(=O)NC1CCN(Cc2ccccc2)CC1 [clebopride] ?
Response: 94.2

Answer for every listed entry: what is its cell viability? The entries follow.
1. O=C1C(CC[S+]([O-])c2ccccc2)C(=O)N(c2ccccc2)N1c1ccccc1 (stereo not drawn)
2. COc1ccc2cc1Oc1ccc(cc1)C[C@H]1c3cc(c(OC)cc3CCN1C)Oc1c(OC)c(OC)cc3c1[C@H](C2)N(C)CC3
3. O=C(NC1CCNCC1)[C@@H]1CC[C@@H]2CN1C(=O)N2OS(=O)(=O)O

Response:
[105, 29.1, 98.2]

Answer for every listed entry: what is its cell viability? The entries follow.
1. CCOc1nc2cccc(C(=O)OCc3oc(=O)oc3C)c2n1Cc1ccc(-c2ccccc2-c2noc(=O)[nH]2)cc1
2. NS(=O)(=O)NCc1csc2ccccc12
3. C[n+]1ccc(C(=O)NCc2ccccc2)cc1 [enisamium-iodide]
4. CC[C@@]1([C@H]2O[C@H]([C@H]3O[C@@](O)(CO)[C@H](C)C[C@@H]3C)C[C@H]2C)CC[C@H]([C@@]2(C)CC[C@]3(C[C@H](O)[C@@H](C)[C@@H]([C@H](C)[C@H](OC)[C@@H](C)C(=O)O)O3)O2)O1 [MONENSIN SODIUM]
5. CN1CCN(CCCN2c3ccccc3Sc3ccc(Cl)cc32)CC1
6. O=C(Nc1cc(C(F)(F)F)cc(C(F)(F)F)c1)Nc1c(Br)cc(Br)cc1-c1nnn[nH]1
7. N[C@@H]1CCCCN(c2c(F)cc3c(=O)c(C(=O)O)cn(C4CC4)c3c2Cl)C1
8. CCC1(CC)C(=O)NC(=O)N(C)C1=O

Response:
1. 93.1
2. 95.4
3. 102
4. 36.9
5. 93.2
6. 87.9
7. 107
8. 95

Answer for every listed entry: what is its cell viability? The entries follow.
1. CC(C)[C@H](CO)Nc1nc(Nc2cccc(Cl)c2)c2ncn(C(C)C)c2n1
2. CC(/C=C/C(=O)NO)=C\[C@@H](C)C(=O)c1ccc(N(C)C)cc1

Response:
[91.4, 7.5]
